IC50 for assorted molecules
# target_entity: GABA-A receptor; anion channel
# assay_info: Binding affinity to mouse brain GABA receptor
Form entry: value (nM) — number only.

Some molecules with known IC50 results, for comparison:
[
  {
    "molecule": "FC(F)(F)c1cc(Cl)c(-n2cc3c(n2)CCC3(F)F)c(Cl)c1",
    "numeric_value": 1000
  },
  {
    "molecule": "FC(F)(F)c1cc(Cl)c(-n2cc3c(n2)CC(F)(F)C3(F)F)c(Cl)c1",
    "numeric_value": 50
  },
  {
    "molecule": "COC1(C)c2cn(-c3c(Cl)cc(C(F)(F)F)cc3Cl)nc2CC1F (centres undefined)",
    "numeric_value": 12000
  }
]

Provide measured IC50 on GABA-A receptor; anion channel for "FC(F)(F)c1cc(Cl)c(-n2cc3c(n2)C(F)(F)CC3(F)F)c(Cl)c1" please.
300

Quote IC50 with test system GABA-A receptor; anion channel for "FC(F)(F)c1cc(Cl)c(-n2cc3c(n2)C(F)(F)CC3)c(Cl)c1"
2800

Provide IC50, tested on GABA-A receptor; anion channel, for CC1CCc2nn(-c3c(Cl)cc(C(F)(F)F)cc3Cl)cc21 (centres undefined) .
3800

Output reported IC50 of the molecule COC1CC(F)(F)c2nn(-c3c(Cl)cc(C(F)(F)F)cc3Cl)cc21 (centres undefined) on GABA-A receptor; anion channel.
3700

State IC50 (GABA-A receptor; anion channel) of O=C1c2cn(-c3c(Cl)cc(C(F)(F)F)cc3Cl)nc2CC1F (centres undefined) .
3200

Fill: IC50 (GABA-A receptor; anion channel) for this molecule FC1Cc2cn(-c3c(Cl)cc(C(F)(F)F)cc3Cl)nc2C1F (centres undefined)
1000

Provide measured IC50 on GABA-A receptor; anion channel for CC1(O)c2cn(-c3c(Cl)cc(C(F)(F)F)cc3Cl)nc2CC1(F)F (centres undefined) please.
2300

Write down measured IC50 (GABA-A receptor; anion channel) for this molecule. FC1CCc2cn(-c3c(Cl)cc(C(F)(F)F)cc3Cl)nc21 (centres undefined)
2900

Consider the molecule "O=C1CCc2nn(-c3c(Cl)cc(C(F)(F)F)cc3Cl)cc21" tested on GABA-A receptor; anion channel; state its IC50.
20000

Report its IC50 with GABA-A receptor; anion channel as the test system: FC1c2nn(-c3c(Cl)cc(C(F)(F)F)cc3Cl)cc2C(F)(F)C1F (centres undefined)
175

Enter measured IC50, system GABA-A receptor; anion channel, for the molecule shown: "FC(F)(F)c1cc(Cl)c(-n2cc3c(n2)CCC3)c(Cl)c1"
1600

Fill: IC50 (GABA-A receptor; anion channel) for this molecule "FC1(F)Cc2cn(-c3c(Cl)cc(C(F)(F)F)cc3Cl)nc2C1"
175

Consider the molecule FC1Cc2nn(-c3c(Cl)cc(C(F)(F)F)cc3Cl)cc2C1(F)F (centres undefined) tested on GABA-A receptor; anion channel; state its IC50.
1000

###

# target_entity: GABA receptor subunit (Musca domestica)
# Sequence (Q75NA5 whole entry): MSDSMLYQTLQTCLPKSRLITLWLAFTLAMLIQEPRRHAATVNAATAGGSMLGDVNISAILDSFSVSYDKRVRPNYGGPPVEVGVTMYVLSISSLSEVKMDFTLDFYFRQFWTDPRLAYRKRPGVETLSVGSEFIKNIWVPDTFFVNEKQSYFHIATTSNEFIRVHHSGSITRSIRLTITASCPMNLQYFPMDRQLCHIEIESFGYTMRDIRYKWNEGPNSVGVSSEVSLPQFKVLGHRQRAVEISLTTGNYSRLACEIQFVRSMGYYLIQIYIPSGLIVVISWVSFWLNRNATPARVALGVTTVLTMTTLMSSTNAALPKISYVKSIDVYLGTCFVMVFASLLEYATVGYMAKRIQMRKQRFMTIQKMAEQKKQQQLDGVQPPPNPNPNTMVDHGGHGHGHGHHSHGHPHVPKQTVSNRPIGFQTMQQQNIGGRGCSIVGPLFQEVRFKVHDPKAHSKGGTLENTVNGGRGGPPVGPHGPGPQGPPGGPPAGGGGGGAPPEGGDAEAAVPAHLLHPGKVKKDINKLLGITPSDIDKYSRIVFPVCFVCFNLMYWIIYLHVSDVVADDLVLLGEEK
# assay_info: Displacement of [3H]EBOB from housefly neuronal membrane GABA receptor
Measured IC50 of individual entries

[
  {
    "compound": "FC(F)(F)c1cc(Cl)c(-n2cc3c(n2)CCC3(F)F)c(Cl)c1",
    "IC50": "> 100 nM"
  },
  {
    "compound": "FC1Cc2nn(-c3c(Cl)cc(C(F)(F)F)cc3Cl)cc2C1(F)F (configuration not stated)",
    "IC50": "< 100 nM"
  },
  {
    "compound": "O=C1c2cn(-c3c(Cl)cc(C(F)(F)F)cc3Cl)nc2CC1F (configuration not stated)",
    "IC50": "320 nM"
  }
]

Consider the compound "FC1(F)Cc2cn(-c3c(Cl)cc(C(F)(F)F)cc3Cl)nc2C1" and give its recorded IC50.
200 nM

Look up and report measured IC50 for this entry: CC1CCc2nn(-c3c(Cl)cc(C(F)(F)F)cc3Cl)cc21 (configuration not stated)
30 nM

State, in one line, measured IC50 of "FC(F)(F)c1cc(Cl)c(-n2cc3c(n2)CC(F)(F)C3(F)F)c(Cl)c1"
< 100 nM

Let me know recorded IC50 for FC1CCc2nn(-c3c(Cl)cc(C(F)(F)F)cc3Cl)cc21 (configuration not stated) , thanks.
1700 nM
